Source: patent US20240174690A1

Test: Metabolic (microsomal) stability assay, human liver microsomes (HLM)
Assay type: in vitro ADME
Settings: predicted clearance as percent of liver blood flow, 1 μM
Exercise: for every item that follows, state its recorded HLM QH.

Please review the following examples before continuing.
MOLECULE	ENDPOINT LABEL	TEST RESULT
CO[C@@H]1C[C@@H]([C@H](C)Oc2cc(-c3ccn(C4COC4)n3)nc(-c3noc4c3CCC[C@@]43CCCc4sc(N)c(C#N)c43)n2)N(C)C1	HLM QH	45%
C[C@H](Oc1cc(-n2cc3ccn([C@@H]4CCOC4)c(=O)c3n2)nc(-c2noc3c2CCC[C@@]32CCCc3sc(N)c(C#N)c32)n1)[C@@H]1CCCN1C	HLM QH	<24%

From here, focus on the item given below.
// query Entry under review: "C[C@H](Oc1cc(N2CC[C@H](N3CCCCC3)C2)nc(-c2noc3c2CCC[C@@]32CCCc3sc(N)c(C#N)c32)n1)[C@@H]1CCCN1C" . Reported HLM QH?
// result <24%
